Source: ChEMBL document CHEMBL1156359

Tested on: SK-MEL-2
TEST_DESCRIPTION: Cytotoxicity against human SK-MEL-2 cells
Type: functional
MEASUREMENT_CONDITIONS: read-out: ED50 (the source's name)
PROPERTY: EC50 (µg/mL)

* COc1cccc2c1C(=O)c1c(O)c3c(c(O)c1C2=O)C[C@@](O)(C(=O)CO)C[C@@H]3O[C@H]1C[C@H](N)[C@H](O)[C@H](C)O1 [DOXORUBICIN] | 0.02
* CC1=C(O)/C(=C\[C@H](C)CC/C=C(/C)CCCc2coc(Cc3ccoc3)c2)OC1=O [SARCOTIN E] | 8.37
* CC1=C(O)/C(=C\[C@H](C)CCC/C(C)=C/CCc2coc(Cc3ccoc3)c2)OC1=O [SARCOTIN D] | 10.2
* CC1=C(O)/C(=C/[C@H](C)CCC/C(C)=C/CCc2coc(Cc3ccoc3)c2)OC1=O [IRCININ 1] | 8.95
* CC1=C(O)[C@H](C/C(C)=C\CCC(C)/C=C\C=C(\C)CCCc2ccoc2)OC1=O (stereo partly drawn) [SARCOTIN B] | 7.78
* CC1=C(O)/C(=C/[C@H](C)CC/C=C(/C)CCCc2coc(Cc3ccoc3)c2)OC1=O [IRCININ 2] | 5.87
* CC1=C(O)[C@@H](C/C(C)=C\CC/C(C)=C/CC/C(C)=C/CCc2ccoc2)OC1=O | 16.3

----------
Tested on: A549
TEST_DESCRIPTION: Cytotoxicity against human A549 cells
Format: functional
MEASUREMENT_CONDITIONS: read-out: ED50 (the source's name)
EC50 less than 4 µg/mL is Satisfied; EC50 greater than or equal to 4 µg/mL is Not satisfied.

- CC1=C(O)[C@@H](C/C(C)=C\CC/C(C)=C/CC/C(C)=C/CCc2ccoc2)OC1=O: Not satisfied
- CC1=C(O)/C(=C/[C@H](C)CC/C=C(/C)CCCc2coc(Cc3ccoc3)c2)OC1=O: Satisfied
- COc1cccc2c1C(=O)c1c(O)c3c(c(O)c1C2=O)C[C@@](O)(C(=O)CO)C[C@@H]3O[C@H]1C[C@H](N)[C@H](O)[C@H](C)O1: Satisfied
- CC1=C(O)[C@@H](C/C(C)=C\CCC(C)/C=C/C=C(\C)CCCc2ccoc2)OC1=O (stereo partly drawn): Not satisfied
- CC1=C(O)[C@H](C/C(C)=C\CCC(C)/C=C\C=C(\C)CCCc2ccoc2)OC1=O (stereo partly drawn): Not satisfied
- CC1=C(O)/C(=C/[C@H](C)CCC/C(C)=C/CCc2coc(Cc3ccoc3)c2)OC1=O: Satisfied
- CC1=C(O)/C(=C\[C@H](C)CC/C=C(/C)CCCc2coc(Cc3ccoc3)c2)OC1=O: Satisfied
- CC1=C(O)/C(=C\[C@H](C)CCC/C(C)=C/CCc2coc(Cc3ccoc3)c2)OC1=O: Not satisfied

----------
Tested on: HCT-15
TEST_DESCRIPTION: Cytotoxicity against human HCT15 cells
Format: functional
MEASUREMENT_CONDITIONS: read-out: ED50 (the source's name)
PROPERTY: EC50 (µg/mL)

* CC1=C(O)/C(=C\[C@H](C)CCC/C(C)=C/CCc2coc(Cc3ccoc3)c2)OC1=O | 9.82
* COc1cccc2c1C(=O)c1c(O)c3c(c(O)c1C2=O)C[C@@](O)(C(=O)CO)C[C@@H]3O[C@H]1C[C@H](N)[C@H](O)[C@H](C)O1 | 0.04
* CC1=C(O)[C@@H](C/C(C)=C\CC/C(C)=C/CC/C(C)=C/CCc2ccoc2)OC1=O | 27.5
* CC1=C(O)[C@H](C/C(C)=C\CCC(C)/C=C\C=C(\C)CCCc2ccoc2)OC1=O (stereo partly drawn) | 8.95
* CC1=C(O)/C(=C\[C@H](C)CC/C=C(/C)CCCc2coc(Cc3ccoc3)c2)OC1=O | 7.31
* CC1=C(O)[C@@H](C/C(C)=C\CCC(C)/C=C/C=C(\C)CCCc2ccoc2)OC1=O (stereo partly drawn) | 27.2
* CC1=C(O)/C(=C/[C@H](C)CCC/C(C)=C/CCc2coc(Cc3ccoc3)c2)OC1=O | 6.91
* CC1=C(O)/C(=C/[C@H](C)CC/C=C(/C)CCCc2coc(Cc3ccoc3)c2)OC1=O | 4.74
